Value source: patent US20150239889A1

Target Or Test System: human HIF-PHD3 (Homo sapiens)
Sequence (Q9H6Z9 whole entry): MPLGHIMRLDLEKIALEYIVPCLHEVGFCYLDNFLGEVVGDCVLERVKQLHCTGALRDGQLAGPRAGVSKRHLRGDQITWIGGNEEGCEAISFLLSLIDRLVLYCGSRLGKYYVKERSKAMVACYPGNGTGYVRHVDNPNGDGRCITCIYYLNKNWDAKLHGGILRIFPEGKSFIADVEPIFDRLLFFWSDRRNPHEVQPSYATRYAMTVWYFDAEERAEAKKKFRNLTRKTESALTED
Decision: IC50 beneath 400 nM gives satisfied; IC50 meeting or exceeding 400 nM gives not satisfied.

Examples with answers:
CC(c1ccc(Cl)c(C(F)(F)F)c1)n1ncc2nc(-n3cc(C(=O)O)cn3)nc(O)c21 (single isomer, unassigned) [Example 316] ... not satisfied
CC(C)C(c1cc(F)cc(F)c1)n1ncc2nc(-n3cc(C(=O)O)cn3)nc(O)c21 (stereo not drawn) [Example 360] ... not satisfied
O=C(O)c1cnn(-c2nc(O)c3c(cnn3C[C@H]3CC[C@H](c4ccccc4)CC3)n2)c1 [Example 155] ... satisfied
Cc1cc(C(C2CC2)n2ncc3nc(-n4cc(C(=O)O)cn4)nc(O)c32)ccc1F (stereo not drawn) [Example 376] ... not satisfied
CC(c1ccc(F)c(C(F)(F)F)c1)n1ncc2nc(-n3cc(C(=O)O)cn3)nc(O)c21 (stereo not drawn) [Example 303] ... not satisfied
O=C(O)c1cnn(-c2nc(O)c3c(n2)c(F)nn3CCC2CCCCC2)c1 [Example 472] ... satisfied

Input line: hey, is IC50 for O=C(O)c1cnn(-c2nc(O)c3c(cnn3Cc3ccc(-c4ccccc4)c(F)c3)n2)c1 [Example 91] lower than 400 nM or not?
Output line: satisfied
